Where do the numbers come from? From ChEMBL document CHEMBL3632480.

# reported AUC; entries follow
experiment: AUC in CD-1 mouse at 10 mg/kg, po; type: ADME, organism-based; settings: in vivo
State the answer as a number, implicitly in ng·h/mL.

Here is how some compounds turned out for AUC.
> print(dat)
                                     smiles  reading.unit  measured.result
1  N#Cc1cc(C(F)(F)F)ccc1/C(=C(\c1ccc(/C=C/C(=O)O)cc1)c1ccc2[nH]nc(F)c2c1)C1CCC1       ng·h/mL            14600
2  N#Cc1cc(Cl)ccc1/C(=C(\c1ccc(/C=C/C(=O)O)cc1)c1ccc2[nH]nc(F)c2c1)C1CCC1       ng·h/mL             3700
3  CS(=O)(=O)c1ccc(/C(=C(\c2ccc(/C=C/C(=O)O)cc2)c2ccc3[nH]nc(F)c3c2)C2CCC2)c(Cl)c1       ng·h/mL              140
4  COc1ccc(/C(=C(\c2ccc(/C=C/C(=O)O)cc2)c2ccc3[nH]nc(F)c3c2)C2CCC2)c(C#N)c1       ng·h/mL             2000
5  O=C(O)/C=C/c1ccc(/C(=C(\c2ccccc2Cl)C2CCC2)c2ccc3[nH]nc(F)c3c2)cc1       ng·h/mL            11100
6  O=C(O)/C=C/c1ccc(/C(=C(\c2ncc(Cl)cc2Cl)C2CCC2)c2ccc3[nH]nc(F)c3c2)cc1       ng·h/mL            15600
7  N#Cc1ccc(/C(=C(\c2ccc(/C=C/C(=O)O)cc2)c2ccc3[nH]nc(F)c3c2)C2CCC2)c(Cl)c1       ng·h/mL             7800

// moving on: another record for AUC
The compound identified as "CS(=O)(=O)c1cc(Cl)ccc1/C(=C(\c1ccc(/C=C/C(=O)O)cc1)c1ccc2[nH]nc(F)c2c1)C1CCC1" registered its AUC at 200

###

test system: MCF7; assay: Cytotoxicity against human MCF7 cells assessed as decrease in cell viability after 5 days by celltiterGlo assay; assay type: functional, cell-based; conditions: MCF7, 120 h
Assign classes using reported IC50 values and the ranges lo (below 2 nM), med (2 nM to below 30 nM), hi (30 nM or more), please.

Exercise: Hey, which category is "CC/C(=C(/c1ccc(/C=C/C(=O)O)cc1)c1cnc2[nH]ncc2c1)c1ccccc1" in, do you know?
Key: hi

Exercise: Which class does "O=C(O)/C=C/c1ccc(/C(=C(\c2ncccc2C(F)(F)F)C2CCC2)c2ccc3[nH]nc(F)c3c2)cc1" fall in?
Key: lo

Exercise: Lab note: sort "CS(=O)(=O)c1cc(Cl)ccc1/C(=C(\c1ccc(/C=C/C(=O)O)cc1)c1ccc2[nH]nc(F)c2c1)C1CCC1" into the matching IC50 band.
Key: lo

Exercise: Category of "CC/C(=C(/c1ccc(/C=C/C(=O)O)cc1)c1cc(Cl)c2[nH]ncc2c1)c1ccccc1" :
Key: hi

Exercise: Assign a category based on measured IC50 for "COCC/C(=C(/c1ccc(/C=C/C(=O)O)cc1)c1ccc2[nH]ncc2c1)c1ccccc1" and give only the class name.
Key: hi

Exercise: Hi, small favor: classify "N#Cc1ccc(/C(=C(\c2ccc(/C=C/C(=O)O)cc2)c2ccc3[nH]nc(F)c3c2)C2CCC2)c(Cl)c1" by its IC50 when you get a moment.
Key: lo

Exercise: Category of "CS(=O)(=O)c1ccc(/C(=C(\c2ccc(/C=C/C(=O)O)cc2)c2ccc3[nH]nc(F)c3c2)C2CCC2)c(Cl)c1" , please.
Key: med

Exercise: Consider "CC/C(=C(/c1ccc(/C=C/C(=O)O)cc1)c1ccc2[nH]ncc2n1)c1ccccc1" . To which IC50 class does it belong?
Key: hi

Exercise: For this compound, which bin applies? "CC/C(=C(/c1ccc(/C=C/C(=O)O)cc1)c1cc2cn[nH]c2cc1C)c1ccccc1"
Key: hi

Exercise: # classify by IC50 band: "CC/C(=C(/c1ccc(/C=C/C(=O)O)cc1)c1ccc2[nH]ncc2c1)c1ccc(F)cc1Cl"
Key: med

Exercise: State the class of the compound shown: "CC/C(=C(/c1ccc(/C=C/C(=O)O)cc1)c1ccc2[nH]nc(Cl)c2c1)c1ccccc1"
Key: hi

Exercise: Field: class (IC50) — entry: "CC/C(=C(/c1ccc(/C=C/C(=O)O)cc1)c1ccc2[nH]nc(F)c2c1)c1ccccc1"
Key: med

Exercise: Hi, small favor: classify "O=C(O)/C=C/c1ccc(/C(=C(\c2ccccc2)C(F)(F)F)c2ccc3[nH]ncc3c2)cc1" by its IC50 when you get a moment.
Key: med

Exercise: Textbook exercise: identify the category of the compound given here, "N#Cc1cc(C(F)(F)F)ccc1/C(=C(\c1ccc(/C=C/C(=O)O)cc1)c1ccc2[nH]nc(F)c2c1)C1CCC1" , according to its measured value.
Key: lo

Exercise: Class (by measured IC50) for "CC/C(=C(/c1ccc(/C=C/C(=O)O)cc1)c1ccc2[nH]ncc2c1C#N)c1ccccc1"
Key: lo

Exercise: For this compound, which bin applies? "N#Cc1cc(F)ccc1/C(=C(\c1ccc(/C=C/C(=O)O)cc1)c1ccc2[nH]nc(F)c2c1)C1CCC1"
Key: lo

###

system: MCF7; test: Decrease in estrogen receptor alpha level in human MCF7 cells 2 to 10 uM after 4 hrs by in-cell western assay; format: functional; details: MCF7, 4 h
Overview of reported Emax across a group of molecules:
Field: numeric (%). Do not append units.

Sample answers from the record:
> print(dat)
                                     smiles  measured.result
1  CC/C(=C(/c1ccc(/C=C/C(=O)O)cc1)c1cnc2[nH]ncc2c1)c1ccccc1               93
2  CC/C(=C(/c1ccc(/C=C/C(=O)O)cc1)c1cc2cn[nH]c2cn1)c1ccccc1               88
3  CC/C(=C(/c1ccc(/C=C/C(=O)O)cc1)c1cc2cn[nH]c2cc1C)c1ccccc1               84
4  CC/C(=C(/c1ccc(/C=C/C(=O)O)cc1)c1ccc2[nH]nc(C)c2c1)c1ccccc1               86
5  CC/C(=C(/c1ccc(/C=C/C(=O)O)cc1)c1cc2cn[nH]c2cc1Cl)c1ccccc1               87

// Emax value for "CC/C(=C(/c1ccc(/C=C/C(=O)O)cc1)c1cc2cn[nH]c2cc1F)c1ccccc1" : 96

Emax for "CC/C(=C(/c1ccc(/C=C/C(=O)O)cc1)c1ccc2[nH]nc(Cl)c2c1)c1ccccc1" is 89

###

experiment: Fraction unbound in CD-1 mouse plasma by equilibrium dialysis; format: ADME, cell-free
Endpoint: fraction unbound
Format: numeric value only, no unit, no commentary.

In the examples that follow, each entry is paired with its recorded fraction unbound.
> print(dat)
                                     smiles          endpoint  measured.result
1  O=C(O)/C=C/c1ccc(/C(=C(\c2ncccc2Cl)C2CCC2)c2ccc3[nH]nc(F)c3c2)cc1  fraction unbound            0.032
2  O=C(O)/C=C/c1ccc(/C(=C(\c2ncc(C(F)(F)F)cc2Cl)C2CCC2)c2ccc3[nH]nc(F)c3c2)cc1  fraction unbound            0.014

# fraction unbound (compound: "CC/C(=C(/c1ccc(/C=C/C(=O)O)cc1)c1ccc2[nH]ncc2c1)c1ccc(F)cc1Cl" ) is 0.011

For this compound ( "COc1ccc(/C(=C(\c2ccc(/C=C/C(=O)O)cc2)c2ccc3[nH]nc(F)c3c2)C2CCC2)c(C#N)c1" ), measured fraction unbound is 0.004

So for "N#Cc1cc(Cl)ccc1/C(=C(\c1ccc(/C=C/C(=O)O)cc1)c1ccc2[nH]nc(F)c2c1)C1CCC1" , the logged fraction unbound turned out to be 0.007

Looking up "N#Cc1cc(F)ccc1/C(=C(\c1ccc(/C=C/C(=O)O)cc1)c1ccc2[nH]nc(F)c2c1)C1CCC1" , I see its fraction unbound listed as 0.021

Looking up "N#Cc1cnccc1/C(=C(\c1ccc(/C=C/C(=O)O)cc1)c1ccc2[nH]nc(F)c2c1)C1CCC1" , I see its fraction unbound listed as 0.1

Sure, the documented fraction unbound for "N#Cc1cc(C(F)(F)F)ccc1/C(=C(\c1ccc(/C=C/C(=O)O)cc1)c1ccc2[nH]nc(F)c2c1)C1CCC1" is 0.014

Short answer for "CS(=O)(=O)c1cc(Cl)ccc1/C(=C(\c1ccc(/C=C/C(=O)O)cc1)c1ccc2[nH]nc(F)c2c1)C1CCC1" : fraction unbound was 0.035

// fraction unbound lookup, compound = "O=C(O)/C=C/c1ccc(/C(=C(\c2ccccc2)C2CCC2)c2ccc3[nH]nc(F)c3c2)cc1" , result: 0.003

Data point: "O=C(O)/C=C/c1ccc(/C(=C(\c2ccncc2Cl)C2CCC2)c2ccc3[nH]nc(F)c3c2)cc1" ; fraction unbound = 0.012

// "N#Cc1ccc(/C(=C(\c2ccc(/C=C/C(=O)O)cc2)c2ccc3[nH]nc(F)c3c2)C2CCC2)c(Cl)c1" : fraction unbound value = 0.006
